# testedTarget: Potassium voltage-gated channel subfamily KQT member 2 (Rattus norvegicus) (UniProt O88943)
# Sequence (O88943 whole entry, looked up): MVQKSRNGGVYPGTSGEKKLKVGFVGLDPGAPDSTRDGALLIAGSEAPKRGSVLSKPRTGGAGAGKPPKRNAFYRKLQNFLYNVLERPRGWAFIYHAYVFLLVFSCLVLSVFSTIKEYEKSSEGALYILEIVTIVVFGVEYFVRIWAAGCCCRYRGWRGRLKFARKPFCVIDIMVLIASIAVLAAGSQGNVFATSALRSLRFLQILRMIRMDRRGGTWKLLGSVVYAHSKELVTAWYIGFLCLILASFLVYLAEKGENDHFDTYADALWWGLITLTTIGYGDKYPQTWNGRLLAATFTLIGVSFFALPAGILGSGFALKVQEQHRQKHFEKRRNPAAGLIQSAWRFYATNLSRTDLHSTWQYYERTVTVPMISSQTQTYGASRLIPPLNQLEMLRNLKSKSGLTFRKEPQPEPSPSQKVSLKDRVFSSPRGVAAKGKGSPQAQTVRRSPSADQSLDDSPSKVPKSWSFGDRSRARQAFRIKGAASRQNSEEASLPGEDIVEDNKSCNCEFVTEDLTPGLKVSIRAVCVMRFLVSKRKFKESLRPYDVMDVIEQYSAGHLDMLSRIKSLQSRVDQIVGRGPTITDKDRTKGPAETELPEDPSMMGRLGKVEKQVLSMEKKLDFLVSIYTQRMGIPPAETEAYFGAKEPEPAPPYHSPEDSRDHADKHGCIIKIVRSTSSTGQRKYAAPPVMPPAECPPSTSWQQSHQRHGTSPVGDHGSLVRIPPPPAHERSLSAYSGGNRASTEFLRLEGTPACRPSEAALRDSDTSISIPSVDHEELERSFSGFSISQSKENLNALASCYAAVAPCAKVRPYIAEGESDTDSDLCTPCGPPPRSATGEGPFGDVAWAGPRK
# protocolDetails: KCNQ2 potentiation in CHO cells – cell-based, FluxOR thallium flux, counter-screen for hERG block protector project, confirmation (AID 1942);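 further: normalized value minus buffer-control mean plus three SD of buffer wells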
# assaySetup: FluxOR thallium flux fluorescence, at 10 µM
Hit rate of the full screen: of about 2,400 compounds, about 580 (24%) were called active.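 How the source made its calls: active means activity change at or above the mean plus 3 SD of buffer wells without dofetilide, per plate; inactive means the rest.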 These entries were drawn from the full list.
Give one outcome, nothing more. List: active, inactive

Query: Assay outcome for Cc1cccc(C(=O)NC(=S)N(C)C2CCCCC2)c1 : what was it?
Reply: active

Query: Then C/C(=C\C(=O)c1ccccc1)NNC(=O)c1ccc(Cl)cc1 ?
Reply: inactive

Query: Then CC(C)CNC(=S)NC(=O)c1ccc(Cl)cc1 ?
Reply: inactive

Query: Then Cc1cccc(C(=O)NC(=S)NNC(=O)COc2c(C)cccc2C)c1 ?
Reply: inactive

Query: Then CN(C(=S)NC(=O)c1ccc(Cl)cc1)C1CCCCC1 ?
Reply: active

Query: Then CN(C(=S)NC(=O)c1ccccc1)C1CCCCC1 ?
Reply: active

====

# testedTarget: Potassium voltage-gated channel subfamily KQT member 2 (Rattus norvegicus) (UniProt O88943)
# protocolDetails: KCNQ2 potentiation in CHO cells – cell-based, FluxOR thallium flux, counter-screen for hERG block protector project, confirmation (AID 1942);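 further: normalized value minus buffer-control mean plus three SD of buffer wells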
# assaySetup: FluxOR thallium flux fluorescence, at 10 µM, stronger effect = higher value
The campaign covered roughly 2,400 compounds. About 580 (24%) were called active. Only a sample is shown.
readoutType: activity change, less the hit threshold (%)
Write it as a number; the unit % goes unstated.

Query: Which value of activity change, less the hit threshold has been reported for Cc1ccc(-c2cc(-c3n[nH]c(=S)o3)c3ccccc3n2)cc1 in the records?
Reply: 37.2

Query: Then CN(C(=O)CCc1ccccc1)c1nnc(-c2ccncc2)s1 ?
Reply: -20.2

Query: Then COc1cc(CCC(=O)NNC(=O)c2ccc(C)cc2)cc(OC)c1OC ?
Reply: -8.9

Query: Then CCc1ccc(C(C)NC(=O)C2CCCC2)cc1 (centres undefined) ?
Reply: 14.8

Query: Then Cc1cc(C)c2nc(NC(=O)CN3C(=O)NC4(CCCC4)C3=O)sc2c1 ?
Reply: -9

Query: Then O=C(COC(=O)c1ccc(Br)o1)NC1CCCCC1 ?
Reply: -6

Query: Then S=C(Nc1ccc(Cl)cc1)c1nc2ccccc2s1 ?
Reply: 7.4

Query: Then O=C(O)c1ccc(CNC(=O)C23CC4CC(CC(C4)C2)C3)cc1 ?
Reply: -18.2

Query: Then NS(=O)(=O)c1ccc(Sc2ccc3c(c2)CCC3)nc1 ?
Reply: -2.7

Query: Then Cc1ccc(NC(=O)C2C3CCC(O3)C2C(=O)O)cc1C (centres undefined) ?
Reply: -2.7

Query: Then Cc1ccc(OC(=O)c2ccc(Br)o2)cc1 ?
Reply: 46.8

Query: Then CCCOc1ccc(OC(=O)c2ccc(Br)o2)cc1 ?
Reply: 6.3

Query: Then CCc1ccccc1N(CC(=O)NC(C)c1ccccc1)S(C)(=O)=O (centres undefined) ?
Reply: -20.5

Query: Then CCCCOc1ccc(CC(=O)NCC(=O)O)cc1 ?
Reply: -16.8

Query: Then COC(=O)c1cc(-c2ccc(C)cc2)n[nH]1 ?
Reply: -3.5

Query: Then COc1ccc(CCNS(=O)(=O)c2csc(C(N)=O)c2)cc1OC ?
Reply: -18.8

Query: Then Cc1ccc(F)cc1CNC(=O)C1CCC(=O)N(C2CC2)C1 (centres undefined) ?
Reply: -13.7

Query: Then CCOC(=O)c1cnc(-n2nc(C)cc2C)nc1NNc1nc(-c2ccccc2)cc(-c2ccccc2)n1 ?
Reply: -15

Query: Then O=C(O)C/C(=C\c1cc(Br)cs1)c1nc2ccccc2o1 ?
Reply: -8.4

Query: Then O=C1CN(S(=O)(=O)c2ccccc2)CC(=O)N1CCc1ccccc1 ?
Reply: -18.7

Query: Then Cc1cccc(NC(=S)c2nc3ccccc3s2)c1 ?
Reply: -23.6

Query: Then O=C(CNCC1CCCO1)N1CCCCCC1 (centres undefined) ?
Reply: -15.5

Query: Then O=C(CCNC(=O)C1CCN(S(=O)(=O)c2ccc(F)cc2)CC1)NCc1ccc(Cl)cc1 ?
Reply: -18.1

Query: Then O=C1c2ccccc2C(=O)N1CCc1nc(-c2ccccn2)no1 ?
Reply: -15.6

FYI, the data here is from PubChem BioAssay AID1942.
